System: Enterococcus faecalis
Test: microbe, parasite or virus in culture
Assay type: functional
Conditions: ATCC 19433
Description: Antibacterial activity against vancomycin-sensitive Enterococcus faecalis ATCC 19433 assessed as growth inhibition by CLSI broth microdilution method
# MIC90 values compiled below
I only need the number, in µg/mL, no unit after it.

Reference set, count: 5
{"COMPOUND": "C[N+](C)(C)c1cccc(-c2ccc3c(-c4ccc(C(F)(F)F)cc4)cccc3c2)c1.[I-]", "ENDPOINT UNIT": "µg/mL", "MIC90": 8}
{"COMPOUND": "CC[C@H]1OC(=O)[C@H](C)[C@@H](O[C@H]2C[C@@](C)(OC)[C@@H](O)[C@H](C)O2)[C@H](C)[C@@H](O[C@@H]2O[C@H](C)C[C@H](N(C)C)[C@H]2O)[C@](C)(O)C[C@@H](C)C(=O)[C@H](C)[C@@H](O)[C@]1(C)O [ERYTHROMYCIN]", "ENDPOINT UNIT": "µg/mL", "MIC90": 1}
{"COMPOUND": "COC(=O)c1ccc(-c2ccc3c(-c4ccc(C(C)(C)C)cc4)cccc3c2)c(CN)c1", "ENDPOINT UNIT": "µg/mL", "MIC90": 16}
{"COMPOUND": "C[n+]1cc2c3c(ccc2c2ccc4cc5c(cc4c21)OCO5)OCO3 [SANGUINARIUM]", "ENDPOINT UNIT": "µg/mL", "MIC90": 8}
{"COMPOUND": "C[N+](C)(C)c1cccc(-c2ccc3c(-c4cccc(-c5ccccc5)c4)cccc3c2)c1.[I-]", "ENDPOINT UNIT": "µg/mL", "MIC90": 2}

Req: Please look up its MIC90: `C[N+](C)(C)Cc1cccc(-c2ccc3c(-c4cccc(-c5ccccc5)c4)cccc3c2)c1.[I-]`
Resp: 4

Req: Please look up its MIC90: `CC(C)(C)c1ccc(-c2cccc3cc(-c4ccccc4CCN)ccc23)cc1`
Resp: 4

Req: Please look up its MIC90: `CC(C)(C)c1ccc(-c2cccc3cc(-c4ccc([N+](C)(C)C)cc4)ccc23)cc1.[I-]`
Resp: 4

Req: Please look up its MIC90: COc1ccc2c(c[n+](C)c3c4cc5c(cc4ccc23)OCO5)c1OC [CHELERYTHRINE]
Resp: 32

Req: Please look up its MIC90: CCC[C@@H]1C[C@@H](C(=O)N[C@@H]([C@H]2O[C@H](SC)[C@H](O)[C@@H](O)[C@H]2O)[C@H](C)Cl)N(C)C1 [CLINDAMYCIN]
Resp: 2

Req: Please look up its MIC90: `CC(C)(C)c1ccc(-c2cccc3cc(-c4cccc([N+](C)(C)C)c4)ccc23)cc1.[I-]`
Resp: 2

Reference source: ChEMBL document CHEMBL2346578
